System: PC-3 prostate
Protocol summary: NCI-60 one-dose screen, 48 h
Conditions: 10 µM unless noted
The panel holds about 83,000 compounds, 20% with a hit somewhere; the sample as a whole holds those more often. Active and inactive are the calls of the source. Rule for the calls: active = growth percent below 10; inactive = the rest.
Give your call using only these classes: active, inactive

Problem: In this assay, the call recorded for "CSc1cccc(NC(=O)Nc2nc3c(C)cccc3s2)c1" was what?
Result: inactive

Problem: In this assay, the call recorded for "CN1C(=O)c2cc(Cl)nc3c(NC(=O)c4cccc(Cl)c4)c(Cl)c(NC(=O)c4cccc(Cl)c4)c1c23" was what?
Result: active

Problem: In this assay, the call recorded for "COc1cc(F)c(-c2nc3c(C)cccc3n2Cc2c(F)cccc2F)c(F)c1" was what?
Result: inactive

Problem: In this assay, the call recorded for "CCOC(=O)c1ccc(Nc2ncnc3ccc(NC(=O)c4ccccc4)cc23)cc1" was what?
Result: inactive

Problem: In this assay, the call recorded for "CC(C)C1=C[C@@]23CC[C@H]4[C@](C)(COCCC#N)CCC[C@]4(C)[C@H]2C[C@@H]1[C@@H]1[C@H]3[C@@H](OCCC#N)CC[C@@H]1OCCC#N" was what?
Result: active

Problem: In this assay, the call recorded for "O=C(O)c1ccc(-n2cc(/C=N/Nc3ccc(Cl)cc3Cl)c(-c3ccccc3)n2)cc1" was what?
Result: inactive

Problem: In this assay, the call recorded for "C=C1C(=O)O[C@H]2[C@H]1CC/C(COC(=O)c1cn(C)c3ccccc13)=C\CC[C@@]1(C)O[C@@H]21" was what?
Result: active

Problem: In this assay, the call recorded for "Cc1c(Cl)cccc1NC(=O)c1sc2nc3c(cc2c1N)CCCCCC3" was what?
Result: inactive

Problem: In this assay, the call recorded for "COc1cc(-c2nn(-c3ccc(Br)cc3)cc2CO)ccc1O" was what?
Result: inactive

---

Test system: HT29 colon
Protocol summary: NCI-60 one-dose screen, 48 h (100 = growth as untreated, 0 = no growth, -100 = all killed)
Conditions: 10 µM unless noted
Description: Growth inhibition of the HT29 human tumor cell line is measured as a screen for anti-cancer activity. Cells are grown in 96 well plates and exposed to the test compound for 48 hours. Compounds are tested at a single concentration, which is 10^-5 M for most compounds. The reported endpoint is percent growth (GI% or GIPRCNT), where numbers from 0 - 100% represent growth inhibition, and numbers from -100% - 0 represent cell death. For example, a value of 40 represents 60% growth inhibition. […]
The panel holds about 83,000 compounds, 20% with a hit somewhere; the sample as a whole holds those more often.
Property name: growth (%)
Return type: number; implicit unit %.

Lookup result for "N#Cc1c(-c2ccc(Cl)cc2)cc(-c2cc3ccccc3o2)nc1SCC(=O)c1ccc(Cl)cc1" ; measured growth: 97.1

Lookup result for "CC[C@]12C=CCN3CC[C@@]4(c5cc(NC(=O)CCC(=O)O[C@H]6CC[C@H]7[C@@H]8CC[C@H]9CC(=O)CC[C@]9(C)[C@H]8CC[C@]67C)c(OC)cc5N(C)[C@H]4[C@@](O)(C(=O)OC)[C@@H]1OC(C)=O)[C@@H]32" ; measured growth: 39

Lookup result for "C#C[C@@]1(O)[C@@H](CO)O[C@@H](n2ccc3c(N)ncnc32)[C@@H]1O" ; measured growth: 2.83

Lookup result for "CC(=O)Oc1c2c(nc3c1c1ccccc1n3Cc1ccccc1)-c1ccccc1C2" ; measured growth: 75.4

Lookup result for "CCOC(=O)c1c(C(F)(F)F)n([O-])c2ccc(Cl)cc2[n+]1=O" ; measured growth: -43.2

Lookup result for "Cc1nc(C)c(C)nc1C" ; measured growth: 97

Lookup result for "CCO/C=N/S(=O)(=O)c1cc2c(cc1Cl)NC=NS2(=O)=O" ; measured growth: 97.4

Lookup result for "c1ccc2nc(N3CCOCC3)c(N3CCCCC3)nc2c1" ; measured growth: 96.1

Lookup result for "Cc1ccc(C2=N[C@H]3CCC[C@@H]3N(c3ccccc3)C(C(Cl)Cl)=N2)cc1" ; measured growth: 89.7

---

Test system: MOLT-4 leukemia
Protocol summary: NCI-60 one-dose screen, 48 h (100 = growth as untreated, 0 = no growth, -100 = all killed)
Conditions: 10 µM unless noted
Protocol: Growth inhibition of the MOLT-4 human tumor cell line is measured as a screen for anti-cancer activity. Cells are grown in 96 well plates and exposed to the test compound for 48 hours. Compounds are tested at a single concentration, which is 10^-5 M for most compounds. The reported endpoint is percent growth (GI% or GIPRCNT), where numbers from 0 - 100% represent growth inhibition, and numbers from -100% - 0 represent cell death. For example, a value of 40 represents 60% growth inhibition. […]
The panel holds about 83,000 compounds, 20% with a hit somewhere; the sample as a whole holds those more often.
Property name: growth (%)
Return type: number; implicit unit %.

Lookup result for "COc1cc(NC(=O)Nc2cnc(Nc3ccc(N4CCOCC4)cc3)nc2Oc2ccc(C(F)(F)F)cc2)cc(OC)c1" ; measured growth: 90.5

Lookup result for "COc1ccc(/C=C/C(=O)c2ccc(NC(=O)CSc3nnc(-c4ccc(OC)c(OC)c4)n3-c3ccccc3)cc2)cc1" ; measured growth: 10.8

Lookup result for "Cc1cccc(NC(=O)c2sc3nc4c(cc3c2N)CN(Cc2ccccc2)CC4)c1C" ; measured growth: 22.5

Lookup result for "C/C(=N\NC(=O)c1ccncc1)c1ccc(N)cc1" ; measured growth: 92.4

Lookup result for "O=C(O)c1ccc(-n2cc(/C=N/Nc3ccc(Cl)cc3Cl)c(-c3ccccc3)n2)cc1" ; measured growth: 88.9

Lookup result for "COc1ccc2[nH]c(-c3ccccc3)c(C=C(C#N)C#N)c2c1" ; measured growth: 0.472

Lookup result for "COc1cc(-c2nn(-c3ccc(Br)cc3)cc2CO)ccc1O" ; measured growth: 57.1

Lookup result for Cc1nc2sc(C(=O)Nc3cccc(Cl)c3C)c(N)c2cc1C(C)O (stereo unspecified) ; measured growth: 13

Lookup result for "CCCCc1ccc(N=Nc2ccc(OCC[N+](C)(C)C)cc2)cc1" ; measured growth: 57.2

Lookup result for COc1cc2c(cc1OC)C(Sc1ccc(Cl)cc1)c1c(nc(N)c(C#N)c1N)O2 (stereo unspecified) ; measured growth: 0.994

Lookup result for "O=C1NCc2ccc3c(-c4cccc(Cl)c4)c[nH]c3c21" ; measured growth: 18.1

Lookup result for "N#Cc1c(-c2ccc(F)cc2)nc(N=Nc2c(O)[nH]c3ccccc23)nc1N1CCOCC1" ; measured growth: 95.3

Lookup result for "O=C1Nc2ccc(Cl)cc2/C1=N/c1nc(-c2ccc(Cl)cc2)cs1" ; measured growth: 2.22

Lookup result for "O=C1c2ccccc2C(=O)c2c1oc1c2c(=O)[nH]c2ccccc21" ; measured growth: 5.55

Lookup result for "COc1ccc(-c2[nH]c3ccc(OC)cc3c2C=C(C#N)C#N)cc1" ; measured growth: 27.3

Lookup result for O=CN1N=C(c2ccc(F)cc2)CC1c1cccc(Nc2ccnc3cc(C(F)(F)F)ccc23)c1 (stereo unspecified) ; measured growth: 23.1

Lookup result for "O=Cc1[nH]c(Sc2ccccc2)c2ccccc12" ; measured growth: 17

Lookup result for "CN(C)CCCn1c2c(c3cc(-c4cccc(S(N)(=O)=O)c4)ccc3c1=O)C(=O)c1ccccc1-2" ; measured growth: 8.99

Lookup result for "CC(=O)c1c(OCC#N)ccc2c(C)cc(=O)oc12" ; measured growth: 101

Lookup result for "CCOC(=O)/C(=C/c1c(-c2ccccc2)[nH]c2ccccc12)C(=O)c1ccc(Cl)cc1" ; measured growth: 1.71

Lookup result for OCCNc1nc(NCCO)nc(Nc2ccc(C3=NN(c4ccc(Cl)cc4)C(c4ccc(Cl)cc4)C3)cc2)n1 (stereo unspecified) ; measured growth: 29.4

---

System: UO-31 renal
Protocol summary: NCI-60 one-dose screen, 48 h (100 = growth as untreated, 0 = no growth, -100 = all killed)
Conditions: 10 µM unless noted
About 83,000 compounds went through this panel and 20% of them were active in at least one assay; those are over-represented in the sample as a whole.
Would you kindly list growth for each of these compounds?
Return type: number; implicit unit %.

Lookup result for "COc1ccc(C(=O)c2cc(F)c(F)c(OC)c2F)cc1OC(=O)CCl" ; measured growth: 71.8

Lookup result for "COCCOCCOCc1n(Cc2ccc3ccccc3c2)c2ccccc2[n+]1Cc1ccc2ccccc2c1" ; measured growth: 81.9

Lookup result for "Nc1c(C(=O)Nc2ccccc2Cl)sc2nc3c(cc12)CN(Cc1ccccc1)CC3" ; measured growth: 99.7

Lookup result for "O=C1c2ccccc2C(=O)c2c1oc1c2c(=O)[nH]c2ccc(Cl)cc21" ; measured growth: -54.9

Lookup result for "CC(C)NS(=O)(=O)c1cccc(-c2ccc3c(=O)n(CCCN)c4c(c3c2)C(=O)c2ccccc2-4)c1" ; measured growth: 93.2

Lookup result for "Cc1nnc(/N=C2\NC(=O)/C(=C/c3ccsc3)S2)s1" ; measured growth: 81.2

Lookup result for OCCNc1nc(NCCO)nc(Nc2ccc(C3=NN(c4cc(Cl)cc(Cl)c4)C(c4ccc(Cl)cc4)C3)cc2)n1 (stereo not given) ; measured growth: 18.1

Lookup result for "CC(=O)c1cnc(-c2ccccc2)nc1CBr" ; measured growth: 44.7

Lookup result for "C#C[C@@]1(O)[C@@H](CO)O[C@@H](n2cc(Cl)c3c(N)ccnc32)[C@@H]1O" ; measured growth: 72.2

Lookup result for "COc1ccc(Nc2nc(SCC(C)C)nc(-c3ccc(F)cc3)c2C#N)cc1" ; measured growth: 68.9

Lookup result for "C=C1C(=O)O[C@H]2[C@H]1CC/C(COC(=O)c1cccnc1N)=C\CC[C@@]1(C)O[C@@H]21" ; measured growth: 13.3

Lookup result for "CC(C)(C)c1ccc2oc(=O)n(SC(Cl)(Cl)Cl)c2c1" ; measured growth: 94.9

Lookup result for CC1(c2ccccc2Cl)NC(=O)NC1=O (stereo not given) ; measured growth: 94

Lookup result for "COc1ccc2nc3nc4ccc[nH]c4cc3c2c1" ; measured growth: 61.5

Lookup result for "CC1(C)CC[C@]2(c3nnc(-c4ccncc4)o3)CC[C@]3(C)C(=CC[C@@H]4[C@@]5(C)CCC(=O)C(C)(C)[C@@H]5CC[C@]43C)[C@@H]2C1" ; measured growth: 77.5

Lookup result for "C#C[C@@]1(O)[C@@H](CO)O[C@@H](n2cc(F)c3c(N)ncnc32)[C@@H]1O" ; measured growth: -15.5

Lookup result for "N#CC(C#N)=C1NC(c2ccccc2)=C(c2ccccc2)C(c2ccccc2Cl)=C1C#N" ; measured growth: 96.8

Lookup result for "COc1cc(C(=O)Nc2cc(O)c(C/C=C(\C)CCC=C(C)C)c(O)c2)cc2c1O[C@]1(C)CC[C@@H](O)C(C)(C)[C@H]1C2" ; measured growth: -31.9

Lookup result for "Cc1cc(Cl)cc(CN(Cc2ccccc2)Cc2c(O)ccc3ccccc23)c1O" ; measured growth: 62.2

Lookup result for "COc1ccc(Sc2[nH]c(C(C)=O)c3ccccc23)cc1" ; measured growth: 73.5
